This listing pairs compounds with measured MIC.
# System: Streptococcus pneumoniae
# TEST METHOD NOTES: Antimicrobial activity against Streptococcus pneumoniae 9 by time-kill analysis
# Type: functional
MEASURED ATTRIBUTE: MIC

INSERT INTO assay_data (compound, target_of_assay, measured_attribute, measurement) VALUES
  ('COc1c(N2CCNC(C)C2)c(F)cc2c(=O)c(C(=O)O)cn(C3CC3)c12 (configuration not stated)', 'Streptococcus pneumoniae', 'MIC', '0.5 µg/mL'),
  ('CC1(C)S[C@@H]2[C@H](NC(=O)[C@H](N)c3ccc(O)cc3)C(=O)N2[C@H]1C(=O)O', 'Streptococcus pneumoniae', 'MIC', '0.25 µg/mL'),
  ('CC[C@H]1OC(=O)[C@H](C)C(=O)[C@H](C)[C@@H](O[C@@H]2O[C@H](C)C[C@H](N(C)C)[C@H]2O)[C@](C)(OC)C[C@@H](C)C(=O)[C@H](C)[C@H]2N(CCCCn3cnc(-c4cccnc4)c3)C(=O)O[C@]12C', 'Streptococcus pneumoniae', 'MIC', '0.008 µg/mL'),
  ('C=CC1=C(C(=O)O)N2C(=O)[C@@H](NC(=O)/C(=N\O)c3csc(N)n3)[C@H]2SC1', 'Streptococcus pneumoniae', 'MIC', '1 µg/mL'),
  ('CO/N=C(\C(=O)N[C@@H]1C(=O)N2C(C(=O)O)=C(COC(N)=O)CS[C@H]12)c1ccco1', 'Streptococcus pneumoniae', 'MIC', '0.25 µg/mL'),
  ('C[C@@H](O)[C@H]1C(=O)N2C(C(=O)O)=C(S[C@@H]3CN[C@H](C(=O)N(C)C)C3)[C@H](C)[C@H]12', 'Streptococcus pneumoniae', 'MIC', '0.12 µg/mL'),
  ('CC[C@H]1OC(=O)[C@H](C)[C@@H](O[C@H]2C[C@@](C)(OC)[C@@H](O)[C@H](C)O2)[C@H](C)[C@@H](O[C@@H]2O[C@H](C)C[C@H](N(C)C)[C@H]2O)[C@](C)(O)C[C@@H](C)CN(C)[C@H](C)[C@@H](O)[C@]1(C)O', 'Streptococcus pneumoniae', 'MIC', '0.06 µg/mL'),
  ('CO/N=C(\C(=O)N[C@@H]1C(=O)N2C(C(=O)O)=C(CSc3nc(=O)c(O)nn3C)CS[C@H]12)c1csc(N)n1', 'Streptococcus pneumoniae', 'MIC', '0.12 µg/mL'),
  ('C[C@@H](O)[C@H]1C(=O)N2C(C(=O)O)=C(SCCNC=N)C[C@H]12 [IMIPENEM ANHYDROUS]', 'Streptococcus pneumoniae', 'MIC', '0.03 µg/mL'),
  ('C[C@@H](O)[C@H]1C(=O)N2C(C(=O)O)=C(S[C@@H]3CN[C@H](C(=O)Nc4cccc(C(=O)O)c4)C3)[C@H](C)[C@H]12', 'Streptococcus pneumoniae', 'MIC', '0.12 µg/mL'),
  ('C[C@@H](O)[C@H]1C(=O)N2C(C(=O)O)=C(S[C@H]3CC[S@@+]([O-])C3)S[C@H]12', 'Streptococcus pneumoniae', 'MIC', '0.12 µg/mL'),
  ('COCC1=C(C(=O)O)N2C(=O)[C@@H](NC(=O)/C(=N\OC)c3csc(N)n3)[C@H]2SC1', 'Streptococcus pneumoniae', 'MIC', '0.25 µg/mL');

###

# Test system: Streptococcus pneumoniae
# TEST METHOD NOTES: Antimicrobial activity against Streptococcus pneumoniae isolate 1564 by agar dilution method
# Type: functional
This listing pairs molecules with measured MIC.
MEASURED ATTRIBUTE: MIC (µg/mL)

INSERT INTO assay_data (molecule, measured_attribute, modifier_sign, measurement) VALUES
  ('C[C@@H](O)[C@H]1C(=O)N2C(C(=O)O)=C(SCCNC=N)C[C@H]12 [IMIPENEM ANHYDROUS]', 'MIC', '=', 0.125),
  ('CO/N=C(\C(=O)N[C@@H]1C(=O)N2C(C(=O)O)=C(CSc3nc(=O)c(O)nn3C)CS[C@H]12)c1csc(N)n1', 'MIC', '>', 8),
  ('CC[C@H]1OC(=O)[C@H](C)[C@@H](O[C@H]2C[C@@](C)(OC)[C@@H](O)[C@H](C)O2)[C@H](C)[C@@H](O[C@@H]2O[C@H](C)C[C@H](N(C)C)[C@H]2O)[C@](C)(O)C[C@@H](C)CN(C)[C@H](C)[C@@H](O)[C@]1(C)O', 'MIC', '>', 64),
  ('COc1c(N2C[C@@H]3CCCN[C@@H]3C2)c(F)cc2c(=O)c(C(=O)O)cn(C3CC3)c12', 'MIC', '=', 0.25),
  ('O=C(O)c1cn(C2CC2)c2cc(N3CCNCC3)c(F)cc2c1=O', 'MIC', '=', 1),
  ('CO/N=C(\C(=O)N[C@@H]1C(=O)N2C(C(=O)O)=C(COC(N)=O)CS[C@H]12)c1ccco1', 'MIC', '=', 64);

###

# Test system: Streptococcus pneumoniae
# TEST METHOD NOTES: Antimicrobial activity against Streptococcus pneumoniae isolate 3681 by agar dilution method
# Format: functional
MEASURED ATTRIBUTE: log10 of MIC (log10 of the value in µg/mL)

INSERT INTO measurements (compound, measured_attribute, measurement) VALUES
  ('COc1c(N2CCNC(C)C2)c(F)cc2c(=O)c(C(=O)O)cn(C3CC3)c12 (stereo not drawn)', 'log10 of MIC', -0.30),
  ('O=C(O)c1cn(C2CC2)c2cc(N3CCNCC3)c(F)cc2c1=O', 'log10 of MIC', 0.00),
  ('CC1(C)S[C@@H]2[C@H](NC(=O)Cc3ccccc3)C(=O)N2[C@H]1C(=O)O', 'log10 of MIC', 0.00),
  ('C[C@@H](O)[C@H]1C(=O)N2C(C(=O)O)=C(S[C@H]3CC[S@@+]([O-])C3)S[C@H]12', 'log10 of MIC', -0.60),
  ('COCC1=C(C(=O)O)N2C(=O)[C@@H](NC(=O)/C(=N\OC)c3csc(N)n3)[C@H]2SC1', 'log10 of MIC', 0.60),
  ('CO/N=C(\C(=O)N[C@@H]1C(=O)N2C(C(=O)O)=C(COC(N)=O)CS[C@H]12)c1ccco1', 'log10 of MIC', 0.60),
  ('C[C@@H](O)[C@H]1C(=O)N2C(C(=O)O)=C(S[C@@H]3CN[C@H](C(=O)N(C)C)C3)[C@H](C)[C@H]12', 'log10 of MIC', -0.60),
  ('C[C@@H](O)[C@H]1C(=O)N2C(C(=O)O)=C(SCCNC=N)C[C@H]12 [IMIPENEM ANHYDROUS]', 'log10 of MIC', -0.90),
  ('CC1(C)S[C@@H]2[C@H](NC(=O)[C@H](N)c3ccc(O)cc3)C(=O)N2[C@H]1C(=O)O', 'log10 of MIC', 0.30),
  ('CC[C@H]1OC(=O)[C@H](C)[C@@H](O[C@H]2C[C@@](C)(OC)[C@@H](O)[C@H](C)O2)[C@H](C)[C@@H](O[C@@H]2O[C@H](C)C[C@H](N(C)C)[C@H]2O)[C@](C)(O)C[C@@H](C)CN(C)[C@H](C)[C@@H](O)[C@]1(C)O', 'log10 of MIC', -0.90),
  ('CO/N=C(\C(=O)N[C@@H]1C(=O)N2C(C(=O)O)=C(CSc3nc(=O)c(O)nn3C)CS[C@H]12)c1csc(N)n1', 'log10 of MIC', 0.00),
  ('CC[C@H]1OC(=O)[C@H](C)[C@@H](O[C@H]2C[C@@](C)(OC)[C@@H](O)[C@H](C)O2)[C@H](C)[C@@H](O[C@@H]2O[C@H](C)C[C@H](N(C)C)[C@H]2O)[C@](C)(OC)C[C@@H](C)C(=O)[C@H](C)[C@@H](O)[C@]1(C)O', 'log10 of MIC', -1.52),
  ('C=CC1=C(C(=O)O)N2C(=O)[C@@H](NC(=O)/C(=N\O)c3csc(N)n3)[C@H]2SC1', 'log10 of MIC', 0.90);

###

This listing pairs molecules with measured MIC.
# Tested on: Streptococcus pneumoniae
# TEST METHOD NOTES: Antimicrobial activity against Streptococcus pneumoniae isolate 1146 by agar dilution method
# Type: functional
MEASURED ATTRIBUTE: MIC

INSERT INTO measurements (molecule, target_of_assay, measurement) VALUES
  ('CO/N=C(\C(=O)N[C@@H]1C(=O)N2C(C(=O)O)=C(CSc3nc(=O)c(O)nn3C)CS[C@H]12)c1csc(N)n1', 'Streptococcus pneumoniae', '2 µg/mL'),
  ('C[C@@H](O)[C@H]1C(=O)N2C(C(=O)O)=C(S[C@H]3CC[S@@+]([O-])C3)S[C@H]12', 'Streptococcus pneumoniae', '1 µg/mL'),
  ('COc1c(N2CCNC(C)C2)c(F)cc2c(=O)c(C(=O)O)cn(C3CC3)c12 (stereo unspecified)', 'Streptococcus pneumoniae', '2 µg/mL'),
  ('CC[C@H]1OC(=O)[C@H](C)[C@@H](O[C@H]2C[C@@](C)(OC)[C@@H](O)[C@H](C)O2)[C@H](C)[C@@H](O[C@@H]2O[C@H](C)C[C@H](N(C)C)[C@H]2O)[C@](C)(OC)C[C@@H](C)C(=O)[C@H](C)[C@@H](O)[C@]1(C)O', 'Streptococcus pneumoniae', '2 µg/mL'),
  ('O=C(O)c1cn(C2CC2)c2cc(N3CCNCC3)c(F)cc2c1=O', 'Streptococcus pneumoniae', '32 µg/mL'),
  ('C[C@@H](O)[C@H]1C(=O)N2C(C(=O)O)=C(SCCNC=N)C[C@H]12 [IMIPENEM ANHYDROUS]', 'Streptococcus pneumoniae', '0.5 µg/mL');

Cited source: ChEMBL document CHEMBL1649446
